Each record here notes measured melting point.

{"structure-as-smiles": "Br.CN(C(=O)c1ccc(C(F)(F)F)cc1)c1ccc(Oc2ccc3c(c2)cc(C(=O)N2CCN(Cc4ccccc4)CC2)n3C)nc1", "data-value": "189 to 201 °C"}
{"structure-as-smiles": "COc1ccc(CN2CCN(C(=O)c3cc4cccc(Oc5ccc(N(C)C(=O)c6ccc(C(F)(F)F)cc6)cn5)c4n3C)CC2)cc1.O=C(O)C(=O)O", "data-value": "134 to 135 °C"}
{"structure-as-smiles": "COc1ccc(C(=O)N2CCN(C(=O)c3cc4cc(Oc5ccc(NC(=O)c6ccc(C(F)(F)F)cc6)cn5)ccc4n3C)CC2)cc1", "data-value": "195 to 196 °C"}
{"structure-as-smiles": "Cn1c(C(=O)N2CCN(Cc3ccccn3)CC2)cc2cc(Oc3ncc(NC(=O)c4ccc(C(F)(F)F)cc4)cn3)ccc21", "data-value": "181 to 182 °C"}
{"structure-as-smiles": "Br.CCCOc1ccc(CN2CCN(C(=O)c3cc4ccc(Oc5ccc(NC(=O)c6ccc(Cl)c(Cl)c6)cn5)cc4n3C)CC2)cc1", "data-value": "239.2 to 240.4 °C"}

# input I'd like to know its melting point. The compound in question is COc1ccc(CN2CCN(C(=O)c3cc4cc(Oc5ccc(NC(=O)c6ccc(-n7cccc7)nc6)cn5)ccc4n3C)CC2)cc1
# output 194 to 195 °C

# input I'd like to know its melting point. The compound in question is Br.Cn1c(C(=O)N2CCN(Cc3ccc(C#N)cc3)CC2)cc2cc(Oc3ccc(NC(=O)c4ccc(Cl)c(Cl)c4)cn3)ccc21
# output 267 to 272 °C (dec.)

# input I'd like to know its melting point. The compound in question is Cc1ccc(C(=O)N(C)c2ccc(Oc3ccc4cc(C(=O)N5CCN(Cc6ccc(OCC(F)F)cc6)CC5)n(C)c4c3)nc2)cc1.Cl
# output 207.8 to 209.3 °C

* * *

quantity-kind: melting point

{"compound": "Br.CN(C(=O)c1ccc(C(F)(F)F)cc1)c1ccc(Oc2ccc3cc(C(=O)N4CCN(Cc5ccc6c(c5)OC(F)(F)O6)CC4)n(C)c3c2)nc1 [Example 440]", "data-value": "243.3 to 245.1 °C"}
{"compound": "Br.CN(C(=O)c1ccc(C(F)(F)F)cc1)c1ccc(Oc2ccc3c(c2)cc(C(=O)N2CCN(Cc4ccc(OC(F)(F)F)cc4)CC2)n3C)nc1 [Example 343]", "data-value": "213 to 216 °C"}
{"compound": "Cc1ccc(S(=O)(=O)N(C)c2ccc(Oc3ccc4cc(C(=O)N5CCN(Cc6ccc(OC(CF)CF)cc6)CC5)n(C)c4c3)nc2)cc1 [Example 523]", "data-value": "116.5 to 116.6 °C"}
{"compound": "Br.CN(C(=O)c1ccc(C(F)(F)F)cc1)c1ccc(Oc2cccc3c2cc(C(=O)N2CCN(Cc4ccc(C#N)cc4)CC2)n3C)nc1 [Example 326]", "data-value": "273 to 276 °C"}
{"compound": "Br.Br.Cc1cc(Oc2ccc3c(c2)cc(C(=O)N2CCN(Cc4ccncc4)CC2)n3C)ncc1NC(=O)c1ccc(C(F)(F)F)cc1 [Example 362]", "data-value": "228 to 232 °C (dec.)"}
{"compound": "CC(C)Oc1ccc(CN2CCN(C(=O)c3cc4ccc(Oc5ccc(N(C)C(=O)c6ccc(OC(F)F)cc6)cn5)cc4n3C)CC2)cc1.Cl", "data-value": "229.7 to 230.4 °C"}
{"compound": "CN(C(=O)c1ccc(C(F)(F)F)cc1)c1ccc(Oc2ccc3c(c2)cc(C(=O)N2CCN(Cc4ccc5c(c4)OC(F)(F)O5)CC2)n3C)nc1.O=C(O)C(=O)O [Example 439]", "data-value": "155.7 to 156.9 °C"}
{"compound": "Br.CCN(C(=O)Nc1ccc(Cl)c(Cl)c1)c1ccc(Oc2ccc3c(c2)cc(C(=O)N2CCN(Cc4ccc5c(c4)OCO5)CC2)n3C)nc1 [Example 583]", "data-value": "224 to 228 °C"}

Consider now this further compound.
# input I'd like to know its melting point. The compound in question is Br.CN(C(=O)c1ccc(Cl)c(Cl)c1)c1ccc(Oc2ccc3c(c2)cc(C(=O)N2CCN(Cc4ccc5c(c4)OCO5)CC2)n3C)nc1 [Example 6]
# output 222 to 226 °C

FYI, the data here is from patent US8551999B2.
